- target.entity: UniProt P28335
- test: Agonist activity at human 5HT2C receptor stably expressed in Flp-In-T-REx-293 cells assessed as maximal Gq-mediated calcium flux by Fluo-4 direct dye based FLIPR Tetra assay relative to control
- Format: functional, cell-based
- condition.parameters: filed as agonist
value.kind: Emax (%)

Cc1cc(C2NCCc3c2[nH]c2ccc(Cl)cc32)sc1Br (centres undefined) = 118

1: Cc1ccc(C2NCCc3c2[nH]c2ccc(F)cc32)cc1 (centres undefined)
2: Oc1ccc(Cl)cc1C1NCCc2c1[nH]c1ccc(Cl)cc21 (centres undefined)
Hi there, can you help? I need to know whether 1 or 2 has lower measured Emax. Indicate your choice by writing its label.
2
(2: 58.9%, 1: 85.4%)

P: Oc1cccc(C2NCCc3c2[nH]c2ccc(Cl)cc32)c1 (centres undefined)
Q: Oc1ccc(C2NCCc3c2[nH]c2ccc(F)cc32)cc1 (centres undefined)
Just tell me: smaller Emax value, P or Q ? Mark your selection by writing its label.
P

1: Fc1ccc2[nH]c3c(c2c1)CCNC3CCc1ccccc1 (centres undefined)
2: Clc1ccc2[nH]c3c(c2c1)CCNC3C1CCOCC1 (centres undefined)
3: Fc1ccc2[nH]c3c(c2c1)CCNC3C1CCOCC1 (centres undefined)
Parameters: sort_field (Emax), sort_dir (desc). Return value: ordered labels per request.
1, 2, 3
(1: 91.3%, 2: 63.8%, 3: 42.3%)

a: Fc1ccc2[nH]c3c(c2c1)CCNC3c1ccccc1F (centres undefined)
b: COc1ccc(OC)c(C2NCCc3c2[nH]c2ccc(F)cc32)c1 (centres undefined)
c: Oc1cccc(C2NCCc3c2[nH]c2ccc(F)cc32)c1 (centres undefined)
Please produce an ascending ranking of these compounds based on Emax. Write the labels out in the order the request specifies.
b, a, c
(b: 55.3%, a: 81%, c: 123%)

###

- target.entity: 5-hydroxytryptamine receptor 2A (Homo sapiens, UniProt P28223)
- Sequence (P28223 whole entry): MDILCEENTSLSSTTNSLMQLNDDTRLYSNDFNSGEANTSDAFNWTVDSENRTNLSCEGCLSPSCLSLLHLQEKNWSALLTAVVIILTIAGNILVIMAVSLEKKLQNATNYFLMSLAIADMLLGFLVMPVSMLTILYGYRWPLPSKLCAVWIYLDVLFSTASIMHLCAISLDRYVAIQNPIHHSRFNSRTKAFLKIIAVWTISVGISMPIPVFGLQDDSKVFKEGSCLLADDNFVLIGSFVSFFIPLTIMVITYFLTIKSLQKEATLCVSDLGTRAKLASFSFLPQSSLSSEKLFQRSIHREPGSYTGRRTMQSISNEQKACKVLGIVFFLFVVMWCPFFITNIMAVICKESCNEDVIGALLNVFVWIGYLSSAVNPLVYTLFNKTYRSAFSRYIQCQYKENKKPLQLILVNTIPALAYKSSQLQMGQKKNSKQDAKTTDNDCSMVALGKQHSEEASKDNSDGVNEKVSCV
- test: Agonist activity at human 5HT2A receptor stably expressed in Flp-In-T-REx-293 cells assessed as maximal Gq-mediated calcium flux by Fluo-4 direct dye based FLIPR Tetra assay relative to control
- Format: functional, cell-based
- condition.parameters: filed as agonist
value.kind: Emax (%)

Below are worked cases with known answers.
CCCC1NCCc2c1[nH]c1ccc(Cl)cc21 (configuration not stated) = 50.1
Oc1cccc(C2NCCc3c2[nH]c2ccc(Cl)cc32)c1 (configuration not stated) = 49.1
COc1ccc(C2NCCc3c2[nH]c2ccc(F)cc32)c(O)c1 (configuration not stated) = 102
Oc1ccc2[nH]c3c(c2c1)CCNC3C1CCCCC1 (configuration not stated) = 74.1
Cc1cc(C2NCCc3c2[nH]c2ccc(Cl)cc32)sc1Br (configuration not stated) = 97.1

1: Oc1ccc2[nH]c3c(c2c1)CCNC3c1ccccc1F (configuration not stated)
2: Clc1ccc2[nH]c3c(c2c1)CCNC3C1CCCCC1 (configuration not stated)
Please state the entry with greater Emax among 1 and 2 . Respond with the label that goes with your answer.
1
(1: 91.4%, 2: 59.9%)

###

- target.entity: 5-hydroxytryptamine receptor 2A (Homo sapiens)
- test: Agonist activity at human 5HT2A receptor stably expressed in Flp-In-T-REx-293 cells assessed as maximal Gq-mediated calcium flux by Fluo-4 direct dye based FLIPR Tetra assay relative to control
- Format: functional, cell-based
value.kind: Emax (%)

Completed entries (count: 3):
Cc1cccc(C2NCCc3c2[nH]c2ccc(F)cc32)c1 (stereo not drawn) = 39.9
Cc1ccc(C2NCCc3c2[nH]c2ccc(O)cc32)cc1 (stereo not drawn) = 11.2
Fc1ccc2[nH]c3c(c2c1)CCNC3CCc1ccccc1 (stereo not drawn) = 31.7

1: Cc1ccc(O)c(C2NCCc3c2[nH]c2ccc(F)cc32)c1 (stereo not drawn)
2: COc1ccc(OC)c(C2NCCc3c2[nH]c2ccc(Cl)cc32)c1 (stereo not drawn)
// pick larger Emax from pair: 1 vs 2 Label of pick, please.
1

A: Fc1ccc2[nH]c3c(c2c1)CCNC3c1ccccc1Cl (stereo not drawn)
B: Fc1ccc2[nH]c3c(c2c1)CCNC3c1ccccc1Br (stereo not drawn)
Please indicate which entry, A or B , has the lower recorded Emax value. Lab log: write the label of the selected item as the result.
B

###

- target.entity: Sigma intracellular receptor 2 (Homo sapiens, UniProt Q5BJF2)
- Sequence (Q5BJF2 whole entry): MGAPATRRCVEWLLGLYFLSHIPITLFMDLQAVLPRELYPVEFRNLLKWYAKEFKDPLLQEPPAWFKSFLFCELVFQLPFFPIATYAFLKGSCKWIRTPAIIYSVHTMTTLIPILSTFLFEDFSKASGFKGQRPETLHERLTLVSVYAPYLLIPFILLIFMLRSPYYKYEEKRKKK
- test: Binding affinity to sigma 2 receptor (unknown origin) assessed as inhibition constant
value.kind: pKi
# reply with the number alone; pKi is -log10 of concentration in mol/L

Given the compound COc1cc(OC)c(C2NCCc3c2[nH]c2ccc(F)cc32)cc1OC (stereo unspecified) , what is its reported pKi?
5.63

###

- target.entity: 5-hydroxytryptamine receptor 2C (Homo sapiens, UniProt P28335)
- Sequence (P28335 whole entry): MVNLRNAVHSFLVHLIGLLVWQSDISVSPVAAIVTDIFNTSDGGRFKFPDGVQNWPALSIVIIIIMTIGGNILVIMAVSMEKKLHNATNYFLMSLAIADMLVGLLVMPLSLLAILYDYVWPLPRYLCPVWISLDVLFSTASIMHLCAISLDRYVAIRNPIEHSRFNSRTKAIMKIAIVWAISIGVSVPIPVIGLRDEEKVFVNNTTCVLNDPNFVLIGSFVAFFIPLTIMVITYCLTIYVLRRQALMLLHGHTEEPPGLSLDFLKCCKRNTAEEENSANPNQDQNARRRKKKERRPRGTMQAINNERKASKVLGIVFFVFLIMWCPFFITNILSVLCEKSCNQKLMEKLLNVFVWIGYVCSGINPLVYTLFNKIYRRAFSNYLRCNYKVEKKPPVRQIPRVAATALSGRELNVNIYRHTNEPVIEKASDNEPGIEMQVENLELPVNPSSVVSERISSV
- test: Agonist activity at human 5HT2C receptor stably expressed in Flp-In-T-REx-293 cells assessed as increase in Gq-mediated calcium flux by Fluo-4 direct dye based FLIPR Tetra assay
- Type: functional, cell-based
- condition.parameters: read-out: EC50
value.kind: EC50 (nM)

Reference set, count: 4
COc1ccc(C2NCCc3c2[nH]c2ccc(F)cc32)cc1OC (configuration not stated) = 152
Fc1ccc2[nH]c3c(c2c1)CCNC3c1ccccc1Cl (configuration not stated) = 872
Cc1cc(C2NCCc3c2[nH]c2ccc(Cl)cc32)sc1Br (configuration not stated) = 173
Oc1ccc(C2NCCc3c2[nH]c2ccc(Cl)cc32)cc1 (configuration not stated) = 105

a: Oc1cc(Br)ccc1C1NCCc2c1[nH]c1ccc(Cl)cc21 (configuration not stated)
b: Clc1ccc2[nH]c3c(c2c1)CCNC3CCc1ccccc1 (configuration not stated)
c: Fc1ccccc1C1NCCc2c1[nH]c1ccc(Cl)cc21 (configuration not stated)
d: Oc1ccc2[nH]c3c(c2c1)CCNC3c1cccs1 (configuration not stated)
# ascending order, key=EC50 Put the labels in the requested order and list them out.
b, d, a, c

###

- Species: Homo sapiens
- test: Inhibition of BZP receptor (unknown origin)
- condition.parameters: concentration not given here
inhibition overview

Illustrative cases are given below, each with its answer.
COc1ccc(C2NCCc3c2[nH]c2ccc(Cl)cc32)c(O)c1 (centres undefined) = < 50%
COc1cc(OC)c(C2NCCc3c2[nH]c2ccc(Cl)cc32)cc1OC (centres undefined) = < 50%
COc1ccc(C2NCCc3c2[nH]c2ccc(F)cc32)c(O)c1 (centres undefined) = < 50%

Then this compound:
Recorded inhibition of COc1cc(OC)c(C2NCCc3c2[nH]c2ccc(F)cc32)cc1OC (centres undefined) , please.
< 50%

###

- target.entity: 5-hydroxytryptamine receptor 2A (Homo sapiens)
- test: Agonist activity at human 5HT2A receptor stably expressed in Flp-In-T-REx-293 cells assessed as maximal Gq-mediated calcium flux by Fluo-4 direct dye based FLIPR Tetra assay relative to control
- Assay type: functional, cell-based
- condition.parameters: filed as agonist
value.kind: Emax (%)

I: Clc1ccc2[nH]c3c(c2c1)CCNC3c1ccncc1Cl (configuration not stated)
II: Clc1ccc2[nH]c3c(c2c1)CCNC3c1ccccc1Br (configuration not stated)
Field: lower recorded Emax (choose I or II ) Give the chosen item's label as your response.
I

I: Oc1ccccc1C1NCCc2c1[nH]c1ccc(Cl)cc21 (configuration not stated)
II: Cc1cccc(C2NCCc3c2[nH]c2ccc(O)cc32)c1 (configuration not stated)
Of I and II , which shows the smaller Emax value? Could you answer with the label of the item you picked?
II
(II: 60.9%, I: 92.7%)

###

- target.entity: 5-hydroxytryptamine receptor 2B (Homo sapiens)
- Sequence (P41595 whole entry): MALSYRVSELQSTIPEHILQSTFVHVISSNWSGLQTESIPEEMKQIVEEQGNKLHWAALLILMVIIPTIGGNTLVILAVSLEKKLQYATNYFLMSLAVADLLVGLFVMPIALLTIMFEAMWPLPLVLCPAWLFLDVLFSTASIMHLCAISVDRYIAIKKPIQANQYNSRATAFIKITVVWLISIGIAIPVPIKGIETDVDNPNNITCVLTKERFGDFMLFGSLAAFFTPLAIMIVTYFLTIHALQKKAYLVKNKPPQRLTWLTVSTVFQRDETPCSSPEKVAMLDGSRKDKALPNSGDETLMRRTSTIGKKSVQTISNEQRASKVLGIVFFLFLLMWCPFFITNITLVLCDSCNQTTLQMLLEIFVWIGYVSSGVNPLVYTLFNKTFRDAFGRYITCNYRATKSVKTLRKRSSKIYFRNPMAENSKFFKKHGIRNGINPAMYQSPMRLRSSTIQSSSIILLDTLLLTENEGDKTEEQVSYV
pKi: −log10 of the molar value.
value.kind: pKi

A: COc1ccc(C2NCCc3c2[nH]c2ccc(F)cc32)c(O)c1 (configuration not stated)
B: COc1cc(OC)c(C2NCCc3c2[nH]c2ccc(F)cc32)cc1OC (configuration not stated)
Field: entry with larger pKi (options A / B ). Reply briefly: the label of your chosen item.
A

###

- target.entity: 5-hydroxytryptamine receptor 2C (Homo sapiens)
- test: Agonist activity at human 5HT2C receptor stably expressed in Flp-In-T-REx-293 cells assessed as maximal Gq-mediated calcium flux by Fluo-4 direct dye based FLIPR Tetra assay relative to control
- Format: functional, cell-based
value.kind: Emax (%)

Use the examples below as a reference point.
Fc1ccc2[nH]c3c(c2c1)CCNC3c1nccs1 (stereo unspecified) = 39.4
Clc1ccc2[nH]c3c(c2c1)CCNC3c1cncnc1 (stereo unspecified) = 38.7
Clc1ccc2[nH]c3c(c2c1)CCNC3c1ccncc1Cl (stereo unspecified) = 27.3
Fc1ccc2[nH]c3c(c2c1)CCNC3c1cccnc1F (stereo unspecified) = 30.2

I: Oc1ccc2[nH]c3c(c2c1)CCNC3C1CCCCC1 (stereo unspecified)
II: Fc1ccccc1C1NCCc2c1[nH]c1ccc(Cl)cc21 (stereo unspecified)
Which value of Emax is greater, the one for I or the one for II ? To answer, give the label that identifies your chosen option.
I

Values were extracted from ChEMBL document CHEMBL5131517.
